Values from patent US20220145335A1

compoundStructure | melting point
CC(=O)O[C@]1(C(C)=O)C[C@@H](O)[C@H]2[C@@H]3C[C@H](C)C4=CC(=O)CC[C@]4(C)[C@H]3[C@@H](O)C[C@@]21C | 228 to 230 °C
CC(=O)O[C@]1(C(C)=O)CC[C@H]2[C@@H]3C[C@@](C)(O)C4=CC(=O)CC[C@]4(C)[C@H]3[C@@H](O)C[C@@]21C | 152 to 154 °C
CC(=O)O[C@]1(C(C)=O)C[C@@H](O)[C@H]2[C@@H]3C[C@H](C)C4=CC(=O)CC[C@]4(C)[C@H]3C(=O)C[C@@]21C | 265 to 268 °C
CC(=O)O[C@]1(C(C)=O)CC[C@H]2[C@@H]3C[C@H](C)C4=CC(=O)CC[C@]4(C)[C@H]3C(=O)C[C@@]21C | 238 to 240 °C
CC(=O)O[C@]1(C(C)=O)CC[C@H]2[C@@H]3C[C@@](C)(O)C4=CC(=O)CC[C@]4(C)[C@H]3C(=O)C[C@@]21C | 232 to 233 °C
